// provenance: paper PMC7822874

# Tested on: Plasmodium falciparum Dd2 asexual blood stage parasites
# measurementProtocol: microbe, parasite or virus in culture
# Set-up: species or system Plasmodium falciparum Dd2 in human erythrocytes; single determination (one 11-point concentration-response curve)
# particulars: Plasmodium falciparum, DD2, Erythrocyte, 72 h; read-out: AC50
endpoint: log10 of AC50 (log10 of the value in µM)
Log scale reminder: AC50 in µM, then log10 taken.

Some entries whose results are on file:
[[record]]
molecule = "COc1ccc(CNC[C@H]2O[C@H](Cc3cc(-c4ccccc4)on3)CC[C@@H]2O)cc1 [NCGC00401044-01]"
reportedvalue = 0.59

[[record]]
molecule = "COc1ccccc1C1CC(c2ccccc2)=NN1C(=O)c1ccccc1 (stereo not shown) [MLS001197331-01]"
reportedvalue = 0.37

[[record]]
molecule = "CCOC(=O)c1c(C)[nH]c(C(=O)CSc2nnc(C3CC3)n2N)c1C [MLS000536141-01]"
reportedvalue = 0.18

[[record]]
molecule = "CCC1(N2CCN(C)CC2)CCN([S+](=O)([O-])c2ccccc2)C1 (stereo not shown) [NCGC00472095-01]"
reportedvalue = 0.82


List log10 of AC50 for every entry below, keeping the order given.
1. Cc1nn2c(c1-c1ccccc1-c1ccccc1)N(CCC(C)C)CCC2 [NCGC00420437-01]
2. COc1ccc(O)c(C(=O)c2cnc3c(c2)c(-c2ccc(F)cc2)c(C#N)c(=O)n3C)c1 [MLS001003111-01]
3. Cc1ccc(NC(=O)c2c(C)oc3ccc(O)c(CN4CCCCCC4)c23)cc1 [NCGC00115683-01]
4. Cc1ccc(C)c(Cn2c(=O)n(CCCCC(=O)NCc3ccc4c(c3)OCO4)c(=O)c3ccccc32)c1 [NCGC00106276-01]
5. Cc1ccc([S+](=O)([O-])N2CCC(OC3CCN(Cc4ccccc4)CC3)CC2)cc1C [NCGC00444948-01]
6. CC1CCCN(Cc2c(O)ccc3c(=O)c(Oc4ccccc4Cl)c(C(F)(F)F)oc23)C1 (stereo not shown) [NCGC00101512-01]
7. COc1ccccc1-c1cc(C(=O)N2CCN(S(=O)(=O)c3ccc(C)cc3)CC2)[nH]n1 [MLS000924750-01]
8. COc1ccc(-n2nc(C(=O)NCC(=O)N3CCN(c4ccccc4OC)CC3)c3ccccc3c2=O)cc1OC [MLS000936245-01]

-0.61
0.78
0.32
0.82
1.18
0.32
0.88
0.82

List log10 of AC50 for every entry below, keeping the order given.
1. O=C(Nc1nnc(SCc2ccc(F)cc2)s1)c1ccccn1 [MLS001003501-01]
2. C/C(=N\NC(=O)c1cccc(Br)c1)c1ccccn1 [MLS001232242-01]
3. Cc1cc(N2CCC(C)CC2)nc(-n2nc(C)cc2C)n1 [MLS000109839-01]
4. Cc1cccc(NC(=O)Cn2c(C)c(C#N)c3ccccc32)c1C [MLS000030212-01]
5. O=C(NC[C@H]1C[C@@H]2CC[N@]1C[C@@H]2CN1CCC(Cc2ccccc2)CC1)c1ccccc1 [NCGC00421103-01]
6. Cc1ccc(Nc2cc(C)nn2-c2nc(C)cc(C)n2)cc1 [MLS000048464-01]
7. CCCn1c(=N)c(C(=O)NCc2ccc3c(c2)OCO3)cc2c(=O)n3cccc(C)c3nc21 [MLS001305712-01]

0.92
0.67
0.48
0.78
0.89
0.82
1.03

List log10 of AC50 for every entry below, keeping the order given.
1. CC(C)c1ccccc1NC(=O)Cn1cccc1-c1nc(-c2ccc(F)cc2)no1 [NCGC00445438-01]
2. O=C(NCc1cccs1)c1nc(-c2cccc(C(F)(F)F)c2)c2cnccn12 [NCGC00476439-01]
3. Cc1ccc(C)c(Oc2c(C(F)(F)F)oc3c(CN4CCN(C)CC4)c(O)ccc3c2=O)c1 [NCGC00141020-01]
4. Cc1ccccc1CN1C[C@@H]2C[C@@H](c3c[nH]nc3-c3ccccc3)N3CCC[C@@]23C1=O [MLS000735381-01]
5. CSc1cccc(Nc2nc3c([S+](=O)([O-])c4ccccc4)nnn3c3ccc(Cl)cc23)c1 [NCGC00112212-01]

1. 0.48
2. 0.97
3. -0.12
4. 1.18
5. 0.27

List log10 of AC50 for every entry below, keeping the order given.
1. Cc1nn2c(c1-c1ccccc1OCc1ccccc1)N(Cc1ccccc1)CCC2 [NCGC00420471-01]
2. O=c1nc(C2CCCN(Cc3ccccn3)C2)[nH]n1-c1ccc(Cl)cc1 (stereo not shown) [NCGC00477746-01]
3. CN1CCC(NCCC(c2ccc(F)cc2)c2ccc(Cl)cc2)CC1 (stereo not shown) [MLS001215866-01]

1. 1.18
2. 0.37
3. 0.63

If you can, please state the reported log10 of AC50 value of COc1ccc(OCC(=O)NCC2(N3CCN(C)CC3)CCCCC2)cc1 [NCGC00118575-01] .
0.27

---

# Tested on: P. berghei-ANKA-GFP-LucCON liver stage parasites in HepG2-A16-CD81EGFP cells
# measurementProtocol: P. berghei liver stage Pb-Luc assay, Method 1 (UCSD, 1536-well)
# Assay type: cell-based, Plasmodium berghei
# particulars: Plasmodium berghei, Method 1; log10 of molar AC50 from Hill fit; read-out: Log AC50 (converted)
endpoint: AC50
Form field: result (number plus unit)

List AC50 for every entry below, keeping the order given.
1. OCCNc1nc(Nc2ccc(Br)cc2)nc2ccccc12
2. CC1=C[C@@H](CNCc2cccnc2)[C@H](C(C)C)C[C@H]1Cc1nnc(-c2ccc([N+](=O)[O-])cc2)o1

1: 1.41 µM; 2: 1.58 µM

List AC50 for every entry below, keeping the order given.
1. COc1ccccc1NS(=O)(=O)c1cc(NC(=O)c2ccc(Cl)nc2)ccc1Cl
2. C=C(C)COc1ccc(-c2n[nH]cc2-c2ccc(OC)c(OC)c2)c(O)c1

1: 2 µM; 2: 0.501 µM

---

# Test system: Plasmodium falciparum Dd2 asexual blood stage parasites
# measurementProtocol: microbe, parasite or virus in culture
# Design: species or system Plasmodium falciparum Dd2 in human erythrocytes; single determination (one 11-point concentration-response curve)
# particulars: Plasmodium falciparum, DD2, Erythrocyte, 72 h; read-out: AC50
endpoint: AC50

Some entries whose results are on file:
[[record]]
compound = "Cn1ccc(NCc2nnc(C(=O)N3CCC[C@@H]3C(c3ccccc3)c3ccccc3)n2-c2ccccc2)n1 [NCGC00415774-01]"
reportedvalue = "1.33 µM"

[[record]]
compound = "O=c1cc(-c2ccccc2)c2ccc3c(c2o1)CN(Cc1cccc(Cl)c1)CO3 [NCGC00116370-01]"
reportedvalue = "0.841 µM"

[[record]]
compound = "COc1cc2c(cc1OCc1cccnc1)N(C(=O)c1ccc(Oc3ccccc3)cc1)CC21CCN(CC(=O)O)CC1 [NCGC00419910-01]"
reportedvalue = "5.96 µM"


Now for a further compound.
If you can, please state the reported AC50 value of Oc1ccccc1CN1CCCC(N2CCN(c3cccc(C(F)(F)F)c3)CC2)C1 (stereo not shown) [MLS000998830-01] .
1.33 µM

---

So I've got a bunch of compounds here, and I need their AC50 values.
# System: Plasmodium falciparum Dd2-attB-ScDHODH (transgenic line expressing yeast DHODH), asexual blood stages
# Construct: Dd2-attB-ScDHODH, the transgenic line that expresses yeast DHODH
# measurementProtocol: organism not typed
# Set-up: replicate k of 3 (each line is one of three independent assays; the three lines of one compound and parasite line follow each other)
# particulars: 72 h; n = 1; read-out: Individual replicates / Log AC50 (converted)
# Experimental: The overexpression of the fumarate-dependent yeast DHODH confers resistance to compounds that inhibit the parasite mETC, or the parasite DHODH enzyme that depends on ubiquinone provided by the parasite mETC. Assays were performed in three independent assays on a subset of compounds, and differences between the Dd2-attB parental line and the ScDHODH transgenic line were analyzed using two-sided Student’s t-tests.
One number for each entry, in µM.

Some entries whose results are on file:
[[record]]
compound = "O=C(O)c1ccnc(-n2ncc(C(CC3CC3)OCCN3CCCCC3)c2-c2cccc(-c3ccccc3)c2)c1 (stereo not drawn)"
unitsofmeasure = "µM"
reportedvalue = 17.8

[[record]]
compound = "Oc1ccc(CCc2ccccc2F)c2cccnc12"
unitsofmeasure = "µM"
reportedvalue = 15.9

[[record]]
compound = "CC(C)(C)OC(=O)NC1CCN(c2cc(-c3ccc(Cl)cc3)[nH]n2)C1 (stereo not drawn)"
unitsofmeasure = "µM"
reportedvalue = 10

[[record]]
compound = "CN1CCN(C2CCN(Cc3ccc(O)c4ncccc34)CC2)CC1"
unitsofmeasure = "µM"
reportedvalue = 15.9

[[record]]
compound = "NC(=O)c1ccc(O)c2ncccc12"
unitsofmeasure = "µM"
reportedvalue = 20

[[record]]
compound = "COc1cccc(NCc2ccc(O)c3ncccc23)n1"
unitsofmeasure = "µM"
reportedvalue = 12.6


List AC50 for every entry below, keeping the order given.
1. CN(C)C(=O)c1cccc(-c2cc(O)c3ncccc3c2)c1
2. Oc1ccc(CCc2ccccc2)c2cccnc12
3. O=C(NCCCN1CCCC1)c1cccc(-c2cc(O)c3ncccc3c2)c1

[6.33, 7.1, 17.8]
